B1: library; numbered along this chain (parent)
chain: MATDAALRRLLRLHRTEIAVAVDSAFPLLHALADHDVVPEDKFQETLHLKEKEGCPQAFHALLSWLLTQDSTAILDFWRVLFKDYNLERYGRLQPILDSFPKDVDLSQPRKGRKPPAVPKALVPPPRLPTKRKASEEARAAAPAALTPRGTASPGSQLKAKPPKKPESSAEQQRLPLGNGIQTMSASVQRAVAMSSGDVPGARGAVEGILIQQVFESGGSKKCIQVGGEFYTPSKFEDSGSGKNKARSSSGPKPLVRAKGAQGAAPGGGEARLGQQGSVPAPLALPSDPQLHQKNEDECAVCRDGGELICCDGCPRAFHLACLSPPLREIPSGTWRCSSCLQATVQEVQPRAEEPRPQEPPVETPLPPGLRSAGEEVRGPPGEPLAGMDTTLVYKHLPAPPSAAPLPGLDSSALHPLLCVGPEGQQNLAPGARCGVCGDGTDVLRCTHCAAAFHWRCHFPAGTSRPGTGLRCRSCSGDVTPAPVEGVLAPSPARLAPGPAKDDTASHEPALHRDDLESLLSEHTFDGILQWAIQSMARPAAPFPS

variants of: B1; assay: AIRE transcriptional activation functional score (insulin promoter-GFP; nonsense median 0, synonymous median 1) (normalised score); higher = higher AIRE activity (more reporter activation); conditions: with insulin promoter-GFP reporter in HEK293
Give measured AIRE transcriptional activation functional score for each item. Keep answers brief.
Respond using a number only.

Q. Quote AIRE transcriptional activation functional score reported for L520D please.
A. 0.849

Q. Using known records, supply AIRE transcriptional activation functional score for P368T
A. 0.983

Q. Return value of AIRE transcriptional activation functional score for input G424N , no commentary.
A. 0.684

Q. Indicate the recorded AIRE transcriptional activation functional score value for this variant: R174H
A. 0.805

Q. Provide measured AIRE transcriptional activation functional score value, entry: T504D
A. 1.79

Q. For R351L , write its AIRE transcriptional activation functional score.
A. 0.985

Q. Please report AIRE transcriptional activation functional score for the following variant: R471E
A. 0.786

Q. Specify AIRE transcriptional activation functional score for L10Y and stop.
A. 1.01

Q. Look up and state reported AIRE transcriptional activation functional score for S241W
A. 0.868

Q. Name the recorded AIRE transcriptional activation functional score of the variant listed here: G387A
A. 1.19

Q. Return AIRE transcriptional activation functional score for the following variant: S412T
A. 1.02

Q. Let me know recorded AIRE transcriptional activation functional score for W335D , thanks.
A. 1.1

Q. Report AIRE transcriptional activation functional score, nothing else, for this variant: H30A
A. -0.75

Q. Please supply the value of reported AIRE transcriptional activation functional score for the item L406M
A. 1.3

Q. Report AIRE transcriptional activation functional score for L7C
A. -1

Q. Determine its reported AIRE transcriptional activation functional score: L49P
A. -0.173

Q. Name the recorded AIRE transcriptional activation functional score of the variant listed here: D515F
A. 0.156

Q. Report measured AIRE transcriptional activation functional score; entry is A284L
A. 1.02

Q. Give me measured AIRE transcriptional activation functional score, please, for this variant: E229Q
A. 1.13

Q. Read the entry R336G and write its reported AIRE transcriptional activation functional score.
A. 1.33

Q. Please give measured AIRE transcriptional activation functional score of the following entry: A403Y
A. 0.507

Q. Determine its reported AIRE transcriptional activation functional score: H415Q
A. 0.783
